Data origin, for the record: paper doi:10.1101/415984v3

# target_or_system: dFABP (Drosophila brain-type FABP) (Drosophila melanogaster)
# Sequence (Q9VGM2 1-130): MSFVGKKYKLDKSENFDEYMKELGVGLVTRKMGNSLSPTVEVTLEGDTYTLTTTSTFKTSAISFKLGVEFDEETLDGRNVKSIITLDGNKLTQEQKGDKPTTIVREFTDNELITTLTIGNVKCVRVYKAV
pKd: −log10 of the molar value.
test_readout: pKd

GET pKd | system: dFABP (Drosophila brain-type FABP) (Drosophila melanogaster) | item: CCCCCCCC/C=C\CCCCCCCC(=O)O
~5.80
